target: HLA-A*02:12; assay: IEDB peptide-MHC binding, purified MHC/direct/fluorescence; filed as Kd, often an IC50 or EC50 that approximates it; bounds were set here for any values at or beyond the usual limits of such assays; details: source organism: Brucella suis 1330
measurement_kind: Kd

Look up Kd with HLA-A*02:12 for this sequence: DPPEPLVRI
≥ 20 µM

###

target: HLA-B*08:01; experiment: IEDB peptide-MHC binding, purified MHC/competitive/fluorescence; filed as Kd, often an IC50 or EC50 that approximates it; bounds were set here for any values at or beyond the usual limits of such assays; settings: source organism: Hepatovirus A
measurement_kind: Kd (nM)
One number for each entry, in nM.

For the sequence shown here, YMYAVSGAL , give the reported Kd.
830

###

biological target: HLA-B*53:01; test: IEDB peptide-MHC binding, purified MHC/competitive/radioactivity; filed as Kd, often an IC50 or EC50 that approximates it; bounds were set here for any values at or beyond the usual limits of such assays; details: source organism: Lassa virus GA391
measurement_kind: Kd (nM)
Answers are plain numbers, in nM.

Look up Kd with HLA-B*53:01 for this sequence: VPHVIEEVM
1090

###

target: HLA-A*69:01; experiment: IEDB peptide-MHC binding, purified MHC/direct/fluorescence; filed as Kd, often an IC50 or EC50 that approximates it; bounds were set here for any values at or beyond the usual limits of such assays; conditions: source organism: Enterobacteria phage f1
pKd: −log10 of the molar value.
measurement_kind: pKd

For the sequence shown here, TFMYVFSTF , give the reported pKd.
≤ 4.70

###

target: HLA-B*57:01; experiment: IEDB peptide-MHC binding, purified MHC/competitive/radioactivity; filed as Kd, often an IC50 or EC50 that approximates it; bounds were set here for any values at or beyond the usual limits of such assays; details: source organism: Dengue virus 4 Dominica/814669/1981
measurement_kind: Kd (nM)
Give bare numbers, in nM.

For the sequence shown here, GSSIGKMFES , give the reported Kd.
1830

###

target: HLA-B*40:02; test: IEDB peptide-MHC binding, purified MHC/competitive/fluorescence; bounds were set here for any values at or beyond the usual limits of such assays; details: source organism: Rattus norvegicus
pIC50: −log10 of the molar value.
measurement_kind: pIC50

Look up pIC50 with HLA-B*40:02 for this sequence: SLLERGQQLGV
≤ 4.70

###

target: HLA-A*26:01; assay: IEDB peptide-MHC binding, purified MHC/competitive/radioactivity; filed as Kd, often an IC50 or EC50 that approximates it; bounds were set here for any values at or beyond the usual limits of such assays; conditions: source organism: SARS coronavirus Tor2
measurement_kind: pKd
Numbers only, as −log10 of the molar value.

Give pKd for each of the items listed below.
1. SSPDAVTTY
2. AYSFLPGVY
3. LYLYALIYF

1: 5.01; 2: 5.19; 3: 4.90

Give pKd for each of the items listed below.
1. DYSVLYNSTF
2. VSSPDAVTTY

1: 5.37; 2: 5.43

Give pKd for each of the items listed below.
1. PFWITAIYVF
2. DYDCVSFCY
3. WFSQRGGSY
4. AFRDVLVVL
5. NVSLVKPTVY

1. 6.14
2. 4.75
3. 5.67
4. 4.89
5. 4.79

###

molecular target: HLA-A*24:03; test: IEDB peptide-MHC binding, purified MHC/competitive/fluorescence; filed as Kd, often an IC50 or EC50 that approximates it; bounds were set here for any values at or beyond the usual limits of such assays; settings: source organism: Araucaria virus
measurement_kind: pKd
One number for each entry, as −log10 of the molar value.

For the sequence shown here, LYVAGVPEL , give the reported pKd.
9.52

###

biological target: HLA-A*02:16; assay: IEDB peptide-MHC binding, purified MHC/direct/fluorescence; filed as Kd, often an IC50 or EC50 that approximates it; bounds were set here for any values at or beyond the usual limits of such assays; conditions: source organism: Araucaria virus
pKd: −log10 of the molar value.
measurement_kind: pKd

For the sequence shown here, LYVAGVPEL , give the reported pKd.
≤ 4.70

###

target: HLA-B*40:01; test: IEDB peptide-MHC binding, purified MHC/direct/fluorescence; filed as Kd, often an IC50 or EC50 that approximates it; bounds were set here for any values at or beyond the usual limits of such assays; conditions: source organism: Escherichia coli
measurement_kind: Kd

For the sequence shown here, RRRIGEIFK , give the reported Kd.
≥ 20 µM

###

molecular target: HLA-A*11:01; assay: IEDB peptide-MHC binding, purified MHC/competitive/fluorescence; bounds were set here for any values at or beyond the usual limits of such assays; conditions: source organism: Vaccinia virus WR
pIC50: −log10 of the molar value.
measurement_kind: pIC50

For the sequence shown here, FYTRVLKPS , give the reported pIC50.
≤ 3.75

###

target: HLA-B*51:01; assay: IEDB peptide-MHC binding, purified MHC/competitive/radioactivity; filed as Kd, often an IC50 or EC50 that approximates it; bounds were set here for any values at or beyond the usual limits of such assays; settings: source organism: Dengue virus 1 Singapore/S275/1990
measurement_kind: Kd (µM)
Give bare numbers, in µM.

Look up Kd with HLA-B*51:01 for this sequence: WPISKMDIGV
10.7

###

molecular target: HLA-B*27:05; assay: IEDB peptide-MHC binding, purified MHC/direct/fluorescence; filed as Kd, often an IC50 or EC50 that approximates it; bounds were set here for any values at or beyond the usual limits of such assays; settings: source organism: Influenza A virus (A/swine/Hong Kong/5190/99(H3N2))
measurement_kind: Kd

Look up Kd with HLA-B*27:05 for this sequence: GYMFESKSM
≥ 20 µM

###

target: HLA-A*02:01; assay: IEDB peptide-MHC binding, purified MHC/direct/fluorescence; filed as Kd, often an IC50 or EC50 that approximates it; bounds were set here for any values at or beyond the usual limits of such assays; details: source organism: Crocodilepox virus
pKd: −log10 of the molar value.
measurement_kind: pKd

For the sequence shown here, VVARLGVPY , give the reported pKd.
≤ 4.70

###

Consider the following sequences; for each one, report its pKd.
target: HLA-B*27:05; experiment: IEDB peptide-MHC binding, purified MHC/direct/fluorescence; filed as Kd, often an IC50 or EC50 that approximates it; bounds were set here for any values at or beyond the usual limits of such assays; conditions: source organism: West Nile virus
pKd: −log10 of the molar value.

KIRNRIERL ≤ 4.70

Switching to the query record.
For the sequence shown here, YCPGTTVTL , give the reported pKd.
≤ 4.70

###

molecular target: HLA-B*07:02; experiment: IEDB peptide-MHC binding, purified MHC/competitive/radioactivity; filed as Kd, often an IC50 or EC50 that approximates it; bounds were set here for any values at or beyond the usual limits of such assays; conditions: source organism: Lassa virus GA391
measurement_kind: Kd (µM)
Numbers only, in µM.

Look up Kd with HLA-B*07:02 for this sequence: VPHVIEEVM
0.324

###

molecular target: HLA-A*11:01; experiment: IEDB peptide-MHC binding, purified MHC/competitive/fluorescence; filed as Kd, often an IC50 or EC50 that approximates it; bounds were set here for any values at or beyond the usual limits of such assays; conditions: source organism: Human immunodeficiency virus 1
measurement_kind: pKd
Numbers only, as −log10 of the molar value.

Look up pKd with HLA-A*11:01 for this sequence: IATLYCVHQR
5.24

###

molecular target: HLA-A*29:02; assay: IEDB peptide-MHC binding, purified MHC/competitive/fluorescence; filed as Kd, often an IC50 or EC50 that approximates it; bounds were set here for any values at or beyond the usual limits of such assays; conditions: source organism: Salmonella enterica subsp. arizonae serovar 62:z4,z23:-
measurement_kind: pKd
Answers are plain numbers, as −log10 of the molar value.

For the sequence shown here, YTIYGAWMF , give the reported pKd.
9.22

###

molecular target: HLA-A*02:19; test: IEDB peptide-MHC binding, purified MHC/direct/fluorescence; filed as Kd, often an IC50 or EC50 that approximates it; bounds were set here for any values at or beyond the usual limits of such assays; settings: source organism: Brucella suis 1330
measurement_kind: Kd

Look up Kd with HLA-A*02:19 for this sequence: DPPEPLVRI
≥ 20 µM

###

target: HLA-B*40:01; assay: IEDB peptide-MHC binding, purified MHC/direct/fluorescence; filed as Kd, often an IC50 or EC50 that approximates it; bounds were set here for any values at or beyond the usual limits of such assays; details: source organism: Escherichia coli O157:H7
pKd: −log10 of the molar value.
measurement_kind: pKd

ETIGLVRAL ≤ 4.70

Switching to the query record.
Look up pKd with HLA-B*40:01 for this sequence: ADLRFASEF
≤ 4.70

###

molecular target: HLA-B*51:01; experiment: IEDB peptide-MHC binding, purified MHC/direct/fluorescence; filed as Kd, often an IC50 or EC50 that approximates it; bounds were set here for any values at or beyond the usual limits of such assays; details: source organism: Vibrio parahaemolyticus RIMD 2210633
pKd: −log10 of the molar value.
measurement_kind: pKd

For the sequence shown here, DTWHGFKNM , give the reported pKd.
≤ 4.70
